Values compiled from ChEMBL document CHEMBL3792337.

The reader will find reported pIC50 values listed item by item below.
# experimental.details: Cytotoxicity against human MGC803 cells after 48 hrs by MTT assay
# Type: functional, cell-based
# assay.context: MGC-803, 48 h
Reminder that pIC50 means the negative base-10 logarithm of the concentration expressed in mol/L.

{"smiles.record": "CO[C@@H]1[C@@H](O)[C@@H](O[C@@H]2CC[C@]3(C=O)[C@@H](CC[C@H]4[C@H]3CC[C@@]3(C)[C@H](C5=CC(=O)OC5)CC[C@@]43O)C2)O[C@H](C)[C@H]1O[C@@H]1O[C@H](CO)[C@@H](O)[C@H](O)[C@H]1O", "pIC50": 5.27}

Below: the item to evaluate.
Given the compound CO[C@H]1[C@H](O)[C@H](O[C@H]2CC[C@@]3(C)[C@H](CC[C@@H]4[C@@H]3CC[C@]3(C)[C@@H](C5=CC(=O)OC5)CC[C@]43O)C2)O[C@@H](C)[C@@H]1O[C@H]1O[C@@H](CO)[C@H](O)[C@@H](O)[C@@H]1O , what is its reported pIC50?
6.38
